Where do the numbers come from? From ChEMBL document CHEMBL5034013.

# assayInfo: Oral bioavailability in dog at 10 mg/kg administered as cassette dose measured by UPLC-MS/MS analysis
# Assay type: ADME, organism-based, Canis lupus familiaris
# statedConditions: in vivo
measureName: bioavailability (%)
Note: unit % is implicit; provide only the numeric part.

For `CCC(=O)N[C@H]1Cc2cccc(C(=O)OCOC(=O)C(C)(C)C)c2OB1O` , what is its reported bioavailability?
42

====

# Test system: Klebsiella pneumoniae
# assayInfo: Antibacterial activity against Klebsiella pneumoniae 196477 expressing AmpC/CMY-2/TEM-1/CTX-M-15 assessed as concentration required to restore ceftibuten activity incubated for 16 to 20 hrs in presence of 1 ug/ml ceftibuten by broth microdilution method
# Format: functional
# statedConditions: time 16-20 hrs
measureName: log10(Activity) (log10 of the value in µg/mL)
All values: log10 Activity [µg/mL].

Fill in the recorded log10(Activity) for this molecule, with Klebsiella pneumoniae as test system: `CCC(=O)N[C@H]1Cc2cccc(C(=O)O)c2OB1O`
-1.80

Fill in the recorded log10(Activity) for this molecule, with Klebsiella pneumoniae as test system: `CC(F)(F)CCC(=O)N[C@H]1Cc2cccc(C(=O)O)c2OB1O`
-0.92

Fill in the recorded log10(Activity) for this molecule, with Klebsiella pneumoniae as test system: `N#CCCC(=O)N[C@H]1Cc2cccc(C(=O)O)c2OB1O`
-1.52

Fill in the recorded log10(Activity) for this molecule, with Klebsiella pneumoniae as test system: `C#CCCC(=O)N[C@H]1Cc2cccc(C(=O)O)c2OB1O`
-1.22

Fill in the recorded log10(Activity) for this molecule, with Klebsiella pneumoniae as test system: `CC(=O)CCC(=O)N[C@H]1Cc2cccc(C(=O)O)c2OB1O`
-1.22

Fill in the recorded log10(Activity) for this molecule, with Klebsiella pneumoniae as test system: `NS(=O)(=O)CCC(=O)N[C@H]1Cc2cccc(C(=O)O)c2OB1O`
-1.52

Fill in the recorded log10(Activity) for this molecule, with Klebsiella pneumoniae as test system: `O=C(CCC(F)(F)F)N[C@H]1Cc2cccc(C(=O)O)c2OB1O`
-0.30

Fill in the recorded log10(Activity) for this molecule, with Klebsiella pneumoniae as test system: `NC(=O)CCC(=O)N[C@H]1Cc2cccc(C(=O)O)c2OB1O`
-1.80

Fill in the recorded log10(Activity) for this molecule, with Klebsiella pneumoniae as test system: `CS(=O)(=O)NCCC(=O)N[C@H]1Cc2cccc(C(=O)O)c2OB1O`
-1.52

Fill in the recorded log10(Activity) for this molecule, with Klebsiella pneumoniae as test system: `Nc1nc(/C(=C/CC(=O)O)C(=O)N[C@@H]2C(=O)N3C(C(=O)O)=CCS[C@H]23)cs1`
0.60

Fill in the recorded log10(Activity) for this molecule, with Klebsiella pneumoniae as test system: `CCCC(=O)N[C@H]1Cc2cccc(C(=O)O)c2OB1O`
-1.52
